Entries and their measured IC50 follow.
tested.system: TNKS2 (Homo sapiens, UniProt Q9H2K2)
Construct: GST-tagged Tnks-2 (873-1166 aa, prepared in-house); made in house
Sequence (Q9H2K2 873-1166): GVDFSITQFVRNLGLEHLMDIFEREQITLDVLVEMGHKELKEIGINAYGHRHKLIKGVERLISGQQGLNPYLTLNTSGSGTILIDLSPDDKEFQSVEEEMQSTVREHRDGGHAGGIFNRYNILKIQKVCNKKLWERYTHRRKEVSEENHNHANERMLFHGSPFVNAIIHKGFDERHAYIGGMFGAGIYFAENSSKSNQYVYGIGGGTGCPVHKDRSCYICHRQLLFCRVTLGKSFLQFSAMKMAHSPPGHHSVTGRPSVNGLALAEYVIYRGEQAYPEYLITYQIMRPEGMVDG
procedure.details: TNKS2 activity ELISA (autoparsylation assay)
Assay type: biochemical
condition.context: GST-tagged Tnks-2; read-out: IC50 [M] TNKS2 ELISA
experimental.endpoint: IC50 (M)

entry.smiles: COc1ccc(C(=O)C2CCN(C(=O)CCCc3nc4c(F)cc(F)cc4c(=O)[nH]3)CC2)cc1C
endpoint.unit: M
experimental.result: 1.6e-10
//
entry.smiles: COc1ccc(C(=O)C2CCN(C(=O)CCCc3nc4ccc(F)cc4c(=O)[nH]3)CC2)cc1
endpoint.unit: M
experimental.result: 3.2e-10
//
entry.smiles: O=C(c1ccc(F)cc1)C1CCN(C(=O)CCCc2nc3ccc(F)cc3c(=O)[nH]2)CC1
endpoint.unit: M
experimental.result: 5.9e-10
//
entry.smiles: N#Cc1cc(C2CCN(C(=O)CCCc3nc4c(F)cccc4c(=O)[nH]3)CC2)cnc1N
endpoint.unit: M
experimental.result: 1.6e-09
//
entry.smiles: Cn1cc(C(=O)C2CCN(C(=O)CCCc3nc4ccccc4c(=O)[nH]3)CC2)cn1
endpoint.unit: M
experimental.result: 3.3e-10
//
entry.smiles: COc1ccc(C(=O)C2CCN(C(=O)CCCc3nc4c(F)cc(F)cc4c(=O)[nH]3)CC2)cc1
endpoint.unit: M
experimental.result: 1.6e-10
//
entry.smiles: COc1cccc(C(=O)C2CCN(C(=O)CCCc3nc4ccccc4c(=O)[nH]3)CC2)c1
endpoint.unit: M
experimental.result: 3.3e-10
//
entry.smiles: COc1ccc(C(=O)C2CCN(C(=O)CCCc3nc4ccccc4c(=O)[nH]3)CC2)cc1C
endpoint.unit: M
experimental.result: 1.3e-10

###

tested.system: TNKS2 (Homo sapiens, UniProt Q9H2K2)
Construct: GST-tagged Tnks-2 (873-1166 aa, prepared in-house); made in house
procedure.details: TNKS2 activity ELISA (autoparsylation assay)
Type: biochemical
condition.context: GST-tagged Tnks-2; read-out: IC50 [M] TNKS2 ELISA
Entries and their measured IC50 follow.

entry.smiles: O=C(c1ccc(-c2cnn(CCN3CCCC3)c2)cc1)C1CCN(C(=O)CCCc2nc3ccccc3c(=O)[nH]2)CC1
IC50 [M]: 3.5e-10
--
entry.smiles: Nc1ncc(C2CCN(C(=O)CCCc3nc4ccc(F)cc4c(=O)[nH]3)CC2)cc1-c1ncccn1
IC50 [M]: 3.4e-10
--
entry.smiles: O=C(c1ccccc1)C1CCN(C(=O)CCCc2nc3ccccc3c(=O)[nH]2)CC1
IC50 [M]: 5.5e-10
--
entry.smiles: CC(C)(O)c1ccc(C(=O)C2CCN(C(=O)CCCc3nc4ccccc4c(=O)[nH]3)CC2)cc1
IC50 [M]: 8.4e-09

###

tested.system: TNKS2 (Homo sapiens, UniProt Q9H2K2)
Construct: GST-tagged Tnks-2 (873-1166 aa, prepared in-house); made in house
procedure.details: TNKS2 activity ELISA (autoparsylation assay)
Type: biochemical
condition.context: GST-tagged Tnks-2; read-out: IC50 [M] TNKS2 ELISA
Entries and their measured IC50 follow.

entry.smiles: COc1ccc(C(=O)C2CCN(C(=O)CCCc3nc4c(C)cc(F)cc4c(=O)[nH]3)CC2)cc1C
endpoint.unit: M
comparison.sign: =
IC50: 7.4e-11

entry.smiles: COc1ccc(C(=O)C2CCN(C(=O)CCCc3nc4c(F)cccc4c(=O)[nH]3)CC2)cc1
endpoint.unit: M
comparison.sign: =
IC50: 2e-10

entry.smiles: COc1ccc(C(=O)C2CCN(C(=O)CCCc3nc4ccc(F)cc4c(=O)[nH]3)CC2)cc1C
endpoint.unit: M
comparison.sign: =
IC50: 1.4e-10

entry.smiles: COCCn1cc(-c2ccc(C(=O)C3CCN(C(=O)CCCc4nc5ccccc5c(=O)[nH]4)CC3)cc2)cn1
endpoint.unit: M
comparison.sign: =
IC50: 1.2e-10

entry.smiles: Nc1ncc(C2CCN(C(=O)CCCc3nc4c(F)cccc4c(=O)[nH]3)CC2)cc1-c1ncccn1
endpoint.unit: M
comparison.sign: =
IC50: 1.6e-10

entry.smiles: Cc1cc(F)cc2c(=O)[nH]c(CCCC(=O)N3CCC(C(=O)c4ccccc4)CC3)nc12
endpoint.unit: M
comparison.sign: =
IC50: 1.3e-10

entry.smiles: COc1ccc(C(=O)C2CCN(C(=O)CCCc3nc4c(F)cccc4c(=O)[nH]3)CC2)cc1F
endpoint.unit: M
comparison.sign: =
IC50: 2e-10

entry.smiles: O=C(c1ccc(F)cc1)C1CCN(C(=O)CCCc2nc3ccccc3c(=O)[nH]2)CC1
endpoint.unit: M
comparison.sign: =
IC50: 6.1e-10

entry.smiles: COc1ccc(C(=O)C2CCN(C(=O)CCCc3nc4c(F)cccc4c(=O)[nH]3)CC2)cc1C
endpoint.unit: M
comparison.sign: <
IC50: 1e-10

entry.smiles: COc1ccc(C(=O)C2CCN(C(=O)CCCc3nc4ccc(F)cc4c(=O)[nH]3)CC2)cc1F
endpoint.unit: M
comparison.sign: =
IC50: 2.5e-10

entry.smiles: COc1ccc(C(=O)C2CCN(C(=O)CCCc3nc4c(F)cccc4c(=O)[nH]3)CC2)cn1
endpoint.unit: M
comparison.sign: =
IC50: 5.2e-10

entry.smiles: COc1ccc(C(=O)C2CCN(C(=O)CCCc3nc4c(C)cc(F)cc4c(=O)[nH]3)CC2)cc1
endpoint.unit: M
comparison.sign: =
IC50: 8.9e-11

###

Entries and their measured IC50 follow.
tested.system: TNKS1 (Homo sapiens)
Construct: GST-tagged Tnks-1 (1023-1327 aa, prepared in-house); made in house
Sequence (O95271 1023-1327): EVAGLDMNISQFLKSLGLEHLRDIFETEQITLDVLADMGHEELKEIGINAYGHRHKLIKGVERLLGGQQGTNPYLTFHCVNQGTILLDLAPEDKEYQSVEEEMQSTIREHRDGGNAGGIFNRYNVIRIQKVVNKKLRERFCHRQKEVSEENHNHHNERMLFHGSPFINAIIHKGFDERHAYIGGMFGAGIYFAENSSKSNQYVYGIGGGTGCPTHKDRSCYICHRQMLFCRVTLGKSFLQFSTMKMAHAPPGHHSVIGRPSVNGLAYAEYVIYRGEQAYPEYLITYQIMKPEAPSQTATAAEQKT
procedure.details: TNKS1 activity ELISA (autoparsylation assay)
Format: biochemical
condition.context: GST-tagged Tnks-1; read-out: IC50 [M] TNKS1 ELISA

entry.smiles: O=C(c1ccccc1)C1CCN(C(=O)CCCc2nc3c(F)cc(F)cc3c(=O)[nH]2)CC1
endpoint.unit: M
IC50: 3.8e-10
--
entry.smiles: O=C(c1ccccc1)C1CCN(C(=O)CCCc2nc3ccccc3c(=O)[nH]2)CC1
endpoint.unit: M
IC50: 7.3e-10
--
entry.smiles: CC(C)(O)c1ccc(C(=O)C2CCN(C(=O)CCCc3nc4ccc(F)cc4c(=O)[nH]3)CC2)cc1
endpoint.unit: M
IC50: 9.6e-09
--
entry.smiles: COc1ccc(C(=O)C2CCN(C(=O)CCCc3nc4c(F)cccc4c(=O)[nH]3)CC2)cc1C
endpoint.unit: M
IC50: 1.2e-10
--
entry.smiles: COc1ccc(C(=O)C2CCN(C(=O)CCCc3nc4ccc(F)cc4c(=O)[nH]3)CC2)cc1C
endpoint.unit: M
IC50: 1.6e-10
